Origin of measurements: PubChem BioAssay (Tox21)

test: Caspase-3/7 induction in CHO-K1 cells by small molecules, qHTS assay (AID 1346980); details: CHO-K1 caspase-3/7 induction, Caspase-Glo luminescence, 17 h; series mostly up to 92.4 µM; also: nearly all actives have a fitted effect of over 15% in size
The source made the active and inactive calls. Calls follow the shape of the dose curve; as a rule, active = well fitted activation curve with a large enough effect in the repeat runs; inconclusive = weak or mixed curves; inactive = flat fitted curve, though single readings scatter.
measured_quantity: outcome

In the examples that follow, each entry is paired with its recorded outcome.
{"molecule": "Cc1ccc(OP(=O)(Oc2ccc(C)cc2)Oc2ccc(C)cc2)cc1", "outcome": "inactive"}
{"molecule": "O=c1oc2ccccc2c(O)c1C(CC(O)c1ccc(-c2ccc(Br)cc2)cc1)c1ccccc1 (stereo not drawn)", "outcome": "inactive"}
{"molecule": "Nc1ccc(Cl)c(Cl)c1", "outcome": "inactive"}
{"molecule": "CC(C)=CC1C(C(=O)OCc2coc(Cc3ccccc3)c2)C1(C)C (stereo not drawn)", "outcome": "inactive"}
{"molecule": "CCC(C)c1ccc(O)cc1 (stereo not drawn)", "outcome": "inactive"}
{"molecule": "O=C(O)C(F)(F)C(F)(F)C(F)(F)C(F)(F)C(F)(F)C(F)(F)C(F)(F)F", "outcome": "inactive"}
{"molecule": "CNC(=O)Oc1cccc2c1OC(C)(C)O2", "outcome": "inactive"}
{"molecule": "CCCCOCCOP(=O)(OCCOCCCC)OCCOCCCC", "outcome": "inactive"}
{"molecule": "CCC(C)(C)c1ccc(O)cc1", "outcome": "inactive"}
{"molecule": "CCC(=O)O[C@H]1CC[C@H]2[C@@H]3CCC4=CC(=O)CC[C@]4(C)[C@H]3CC[C@]12C", "outcome": "inactive"}

Return reported outcome; argument: Nc1ccc(-c2ccccc2)cc1 inactive

Further, for CCCCCCOC(=O)c1ccccc1C(=O)OCCCCCC ? inactive

Then what about the molecule CCC(C)(c1ccc(O)cc1)c1ccc(O)cc1 ? inactive

---

Target: Cytochrome P450 3A4 (Homo sapiens) (UniProt P08684)
Sequence (P08684 whole entry, looked up): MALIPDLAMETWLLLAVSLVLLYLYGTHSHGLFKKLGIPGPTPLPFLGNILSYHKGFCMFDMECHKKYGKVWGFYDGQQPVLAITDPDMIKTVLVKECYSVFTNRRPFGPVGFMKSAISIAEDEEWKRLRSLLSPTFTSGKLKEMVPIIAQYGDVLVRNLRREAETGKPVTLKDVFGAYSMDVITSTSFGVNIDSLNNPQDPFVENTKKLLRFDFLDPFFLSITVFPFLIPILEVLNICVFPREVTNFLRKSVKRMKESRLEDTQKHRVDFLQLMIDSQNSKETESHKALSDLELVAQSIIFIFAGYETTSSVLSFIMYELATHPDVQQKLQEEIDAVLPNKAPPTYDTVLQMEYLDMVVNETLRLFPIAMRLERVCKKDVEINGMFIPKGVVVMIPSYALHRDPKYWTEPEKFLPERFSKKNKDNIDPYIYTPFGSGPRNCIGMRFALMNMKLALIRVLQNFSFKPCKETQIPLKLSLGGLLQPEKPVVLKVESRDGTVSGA
Assay: Cytochrome P450 Family 3 Subfamily A Member 4 (CYP3A4) small molecule antagonists: luciferase reporter qHTS assay (AID 1671201); also: nearly all actives have a fitted effect of over 50% in size
Details: P450-Glo CYP3A4 enzyme, luciferin luminescence, 1 h; series mostly up to 115 µM
Source text: National Center for Advancing Translational Sciences [NCATS] U.S. Environmental Protection Agency [EPA] National Institutes of Environmental Health Sciences [NIEHS] National Toxicology Program [NTP] U.S. Food and Drug Administration [FDA] Cytochrome P450 (CYP) enzymes are membrane-bound hemeproteins that play a key role in metabolism of drugs and xenobiotics. […] The luciferin products formed are detected with a luciferin detection reagent, and the amount of light produced is proportional to CYP activity. […]
Inconclusive results are not listed. Active and inactive are the calls of the source. Calls come from the whole dose curve; as a rule, active = well fitted inhibition curve with a large enough effect in the repeat runs; inconclusive = weak or mixed curves; inactive = no such curve, though single readings can be large or run the other way.
Result category, one only: active, inactive

{"compound": "CC(C)(OOC(C)(C)c1ccccc1)c1ccccc1", "class_assignment": "inactive"}
{"compound": "C#C[C@]1(O)CC[C@H]2[C@@H]3CCC4=CC(=O)CC[C@]4(C)[C@H]3CC[C@@]21C", "class_assignment": "inactive"}
{"compound": "C=C(C)C(=O)OCC1CO1 (centres undefined)", "class_assignment": "inactive"}
{"compound": "CCOc1cc(C=O)ccc1O", "class_assignment": "inactive"}
{"compound": "CCCCC(CC)COC(=O)c1ccc(C(=O)OCC(CC)CCCC)c(C(=O)OCC(CC)CCCC)c1 (centres undefined)", "class_assignment": "inactive"}

Per the records of this test, what outcome belongs to Cc1ccc2c(c1N)C(=O)c1ccccc1C2=O ? inactive
